In this section, each of the sequences is paired with its reported PBM binding z-score.
Tested on: RARb:RXRa (NR concentration 270 nM, RXRa partner concentration 90 nM)
Method Description: PBM binding z-score (relative to random genomic background probes); higher = stronger binding; sequences stand for … in GC…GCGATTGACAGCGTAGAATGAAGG
Respond numerically, and do not add a unit to the figure.

Example cases with answers are listed next.
| Sequence Code | PBM binding z-score |
| --- | --- |
| TTACCAAGGTGAGCTGAGGTCGTGGATCCAACTC | 1.94 |
| TCTTGGAGATCAAGCAGGTTAAGAAAGCCTGAGT | 0.272 |
| TATTGTAGATCAACAGGAGGTTAAGAAAGATCGA | 0.665 |
| GCTAGTTGGTCAGTAAAAGGTCACACACCGGTCG | 4.19 |
| ATATGTAGGTTGTCGGGTCATTCAGTTTGCGCAT | 2.08 |

Challenge: Lab request: please report PBM binding z-score under test system RARb:RXRa (NR concentration 270 nM, RXRa partner concentration 90 nM) for ATAGAAAGGTCGAGGTGAGTATAGAGAAAGGGAA
Response given: 4

Challenge: Lab request: please report PBM binding z-score under test system RARb:RXRa (NR concentration 270 nM, RXRa partner concentration 90 nM) for CGTCCAAGTTCAGCAGGTCAGTGAAAGCGACGTG
Response given: 3.75

Challenge: Lab request: please report PBM binding z-score under test system RARb:RXRa (NR concentration 270 nM, RXRa partner concentration 90 nM) for ATATGTAGGTTATCGGGTCTTTCAGTTTGCGCAT
Response given: 1.3

Challenge: Lab request: please report PBM binding z-score under test system RARb:RXRa (NR concentration 270 nM, RXRa partner concentration 90 nM) for CAGCCTAGGTCAGGGCCAGTCTAGGAGGAACGTT
Response given: 3.28

Challenge: Lab request: please report PBM binding z-score under test system RARb:RXRa (NR concentration 270 nM, RXRa partner concentration 90 nM) for TCGAGTAGGTTAGGGGCATTCAAAATGGCGTCGA
Response given: 1.24

Challenge: Lab request: please report PBM binding z-score under test system RARb:RXRa (NR concentration 270 nM, RXRa partner concentration 90 nM) for CGAACTAGGTCATCCAGAACAGTGAATACATTGA
Response given: 3.83

Challenge: Lab request: please report PBM binding z-score under test system RARb:RXRa (NR concentration 270 nM, RXRa partner concentration 90 nM) for ACTAGCAGGCCAAGGGTTACTCAAGATTAGTCCG
Response given: 0.894

Challenge: Lab request: please report PBM binding z-score under test system RARb:RXRa (NR concentration 270 nM, RXRa partner concentration 90 nM) for ATCGAAAGGTCGAACGTGAGTATACCCACCCGAA
Response given: 3.75

Challenge: Lab request: please report PBM binding z-score under test system RARb:RXRa (NR concentration 270 nM, RXRa partner concentration 90 nM) for CCTATTAGTTTACCATAAGGGCAACCGAAGCTCG
Response given: 1.6

Challenge: Lab request: please report PBM binding z-score under test system RARb:RXRa (NR concentration 270 nM, RXRa partner concentration 90 nM) for GATATAGGGTCAAGGCCAGAGTACGCGTATTGAT
Response given: 4.62

Challenge: Lab request: please report PBM binding z-score under test system RARb:RXRa (NR concentration 270 nM, RXRa partner concentration 90 nM) for CCTCGGAGGACAGAAGGGCAGAGCTGTCCGCTTT
Response given: 1.2

Challenge: Lab request: please report PBM binding z-score under test system RARb:RXRa (NR concentration 270 nM, RXRa partner concentration 90 nM) for AGAACGAGGGCACGCTGAGCTGATAGCAGAGTAG
Response given: 2.39

Challenge: Lab request: please report PBM binding z-score under test system RARb:RXRa (NR concentration 270 nM, RXRa partner concentration 90 nM) for GCGACTGGGGCATCAGCAGTTTACCATAACTTAA
Response given: 0.388

Challenge: Lab request: please report PBM binding z-score under test system RARb:RXRa (NR concentration 270 nM, RXRa partner concentration 90 nM) for CCTAGTAGGCCAGGGTCACTCAAGCATTTCGCTT
Response given: 2.65

Challenge: Lab request: please report PBM binding z-score under test system RARb:RXRa (NR concentration 270 nM, RXRa partner concentration 90 nM) for TAGCCTAGGTCATGCAGGCCAGTATAGTGTCGGC
Response given: 3.66

Challenge: Lab request: please report PBM binding z-score under test system RARb:RXRa (NR concentration 270 nM, RXRa partner concentration 90 nM) for AGAATGAGGTAATACGTAGATCAGGGAAGAAAGT
Response given: 0.0493

Challenge: Lab request: please report PBM binding z-score under test system RARb:RXRa (NR concentration 270 nM, RXRa partner concentration 90 nM) for ATATGTAGGTTAAGGCTCATTCAGGTTGGTTCGC
Response given: 1.02

Challenge: Lab request: please report PBM binding z-score under test system RARb:RXRa (NR concentration 270 nM, RXRa partner concentration 90 nM) for ATATGTAGGTTACATCCGGGTCGTTCAGGCTATG
Response given: 1.49
